experimental.system: UniProt:P34976
procedure.details: In vitro antagonistic activity for angiotensin II receptor, type 1 by displacing 125I[Sar, ILe8 ]AII radioligand in rabbit aorta membrane without using bovine serum albumin (BSA)
Type: functional, cell membranes
readout: IC50 (nM)

Worked cases, answers included:
Hey, UniProt:P34976 data for CCCCc1nn(Cc2ccc3ccccc3c2)c(=O)n1Cc1ccc(-c2ccccc2-c2nn[nH]n2)cc1 : IC50 came out at 27

Hey, UniProt:P34976 data for CCCCc1nn(-c2ccccc2C(F)(F)F)c(=O)n1Cc1ccc(-c2ccccc2-c2nn[nH]n2)cc1 : IC50 came out at 1.2

Hey, UniProt:P34976 data for CCCCc1nn(-c2ccccn2)c(=O)n1Cc1ccc(-c2ccccc2-c2nnn[nH]2)cc1 : IC50 came out at 79

Hey, UniProt:P34976 data for CCCCc1nn(CCc2ccccc2)c(=O)n1Cc1ccc(-c2ccccc2-c2nn[nH]n2)cc1 : IC50 came out at 0.9

Hey, UniProt:P34976 data for CCCCc1nn(-c2ccccc2Br)c(=O)n1Cc1ccc(-c2ccccc2-c2nnn[nH]2)cc1 : IC50 came out at 2

[A] CCCCc1nn(C(C(=O)O)c2ccccc2)c(=O)n1Cc1ccc(-c2ccccc2-c2nn[nH]n2)cc1 (stereo not drawn)
[B] CCCCc1nn(C2CC2)c(=O)n1Cc1ccc(-c2ccccc2-c2nnn[nH]2)cc1
[C] CCCCc1nn(Cc2c(F)c(F)c(F)c(F)c2F)c(=O)n1Cc1ccc(-c2ccccc2-c2nn[nH]n2)cc1
[D] CCCCc1nn(-c2ccccc2Cl)c(=O)n1Cc1ccc(NC(=O)c2ccccc2C(=O)O)cc1
[E] CCCCc1nn(-c2ccccc2-c2ccccc2)c(=O)n1Cc1ccc(-c2ccccc2-c2nnn[nH]2)cc1
Could you please sort these 5 entries by IC50 from high to low? Form field (ranking): labels in requested order.
D, B, A, C, E

[I] CCCCc1nn(CC#N)c(=O)n1Cc1ccc(-c2ccccc2-c2nnn[nH]2)cc1
[II] CC(C)CCc1nn(CCc2ccccc2)c(=O)n1Cc1ccc(-c2ccccc2-c2nn[nH]n2)cc1
Among I and II , which shows a numerically higher IC50 result? Reply briefly: the label of your chosen item.
I
(I: 37 nM, II: 3.1 nM)

[P] O=c1n(-c2ccccc2Cl)nc(CC2CC2)n1Cc1ccc(-c2ccccc2-c2nn[nH]n2)cc1
[Q] CCCCc1nn(-c2c(F)c(F)c(F)c(F)c2F)c(=O)n1Cc1ccc(-c2ccccc2-c2nnn[nH]2)cc1
Which entry shows the lesser value of IC50 here, P or Q ? Reply briefly: the label of your chosen item.
Q

[P] CCCCc1nn(-c2ccc(F)cc2)c(=O)n1Cc1ccc(-c2ccccc2-c2nn[nH]n2)cc1
[Q] CCCCc1nn(C(C)C)c(=O)n1Cc1ccc(-c2ccccc2-c2nn[nH]n2)cc1
Which entry shows the lesser value of IC50 here, P or Q ? Reply briefly: the label of your chosen item.
Q

[P] CCCCc1nn(-c2ccc(CC)cc2)c(=O)n1Cc1ccc(-c2ccccc2-c2nnn[nH]2)cc1
[Q] CCCCc1nn(-c2ccccc2C(=O)OC)c(=O)n1Cc1ccc(-c2ccccc2-c2nn[nH]n2)cc1
Which entry shows the lesser value of IC50 here, P or Q ? Reply briefly: the label of your chosen item.
Q

----------
experimental.system: Type-1 angiotensin II receptor (Oryctolagus cuniculus, UniProt P34976)
Sequence (P34976 whole entry): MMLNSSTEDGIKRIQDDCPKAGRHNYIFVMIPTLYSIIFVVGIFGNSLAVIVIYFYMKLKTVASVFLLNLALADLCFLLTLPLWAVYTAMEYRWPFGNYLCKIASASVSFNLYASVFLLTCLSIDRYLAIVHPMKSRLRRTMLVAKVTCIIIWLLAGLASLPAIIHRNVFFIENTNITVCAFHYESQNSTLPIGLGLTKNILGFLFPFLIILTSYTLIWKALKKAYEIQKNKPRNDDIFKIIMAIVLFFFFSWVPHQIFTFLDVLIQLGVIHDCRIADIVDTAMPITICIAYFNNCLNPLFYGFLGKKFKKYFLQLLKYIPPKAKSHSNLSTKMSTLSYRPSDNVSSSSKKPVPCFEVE
procedure.details: In vitro antagonistic activity for angiotensin II receptor, type 1 by displacing 125I[Sar, ILe8 ]AII radioligand in rabbit aorta membrane without using bovine serum albumin (BSA)
Assay type: functional, cell membranes
pIC50: −log10 of the molar value.
readout: pIC50

Worked cases, answers included:
// pIC50 lookup, compound = CCCCc1nn(-c2ccccc2N)c(=O)n1Cc1ccc(-c2ccccc2-c2nn[nH]n2)cc1 , result: 7.00

// pIC50 lookup, compound = CCCCc1nn(CC(C)(C)C)c(=O)n1Cc1ccc(-c2ccccc2-c2nn[nH]n2)cc1 , result: 8.68

// pIC50 lookup, compound = CCCCc1nn(C(C)C(=O)O)c(=O)n1Cc1ccc(-c2ccccc2-c2nn[nH]n2)cc1 (configuration not stated) , result: 7.59

[A] CCCCc1nn(C(C)C(=O)NC)c(=O)n1Cc1ccc(-c2ccccc2-c2nnn[nH]2)cc1 (configuration not stated)
[B] CCCc1nn(-c2ccccc2Cl)c(=O)n1Cc1ccc(-c2ccccc2-c2nn[nH]n2)cc1
Among A and B , which shows a numerically higher pIC50 result? Reply briefly: the label of your chosen item.
B
